In this section, each of the binders is paired with its reported Pair-wise inhibition (%).
SYSTEM_TESTED: recombinant pentameric gH complex (Towne strain) (human cytomegalovirus, Towne strain) (UniProt P17176)
Sequence (P17176 30-715, one chain of several): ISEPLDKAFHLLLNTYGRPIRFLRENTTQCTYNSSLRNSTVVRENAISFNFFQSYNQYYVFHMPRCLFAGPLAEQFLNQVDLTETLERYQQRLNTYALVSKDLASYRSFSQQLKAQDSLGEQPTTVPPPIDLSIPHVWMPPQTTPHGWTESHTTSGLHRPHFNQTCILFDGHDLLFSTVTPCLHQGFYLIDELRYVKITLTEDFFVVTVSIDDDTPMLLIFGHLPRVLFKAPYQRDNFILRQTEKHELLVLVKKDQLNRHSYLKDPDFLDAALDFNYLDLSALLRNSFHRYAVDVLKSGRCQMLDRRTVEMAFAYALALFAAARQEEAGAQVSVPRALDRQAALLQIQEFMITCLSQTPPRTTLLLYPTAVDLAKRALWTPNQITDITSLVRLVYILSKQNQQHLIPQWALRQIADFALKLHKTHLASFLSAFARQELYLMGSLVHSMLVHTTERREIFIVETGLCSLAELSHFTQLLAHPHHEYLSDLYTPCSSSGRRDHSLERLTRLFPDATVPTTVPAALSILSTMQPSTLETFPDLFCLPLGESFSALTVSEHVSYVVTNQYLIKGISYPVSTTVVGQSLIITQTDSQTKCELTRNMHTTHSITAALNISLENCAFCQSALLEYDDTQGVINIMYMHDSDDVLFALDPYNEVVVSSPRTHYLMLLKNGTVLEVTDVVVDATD
MEASUREMENT_NOTES: BLI competition on His-pentamer; competitor (antibody 2): 70.7
Number only, in %; omit the unit.

1-103 (antibody, V domains shown) VH: QLQLQESGPGLVKPSETLSLTCSVSGDAISGSNYYWGWIRQPPGKGLQWIGSIYHTGSTFYNPSFSSRVTLSVDTSKNQFSLKLISVNAADTAVYYCARRIRGYSGTYDWGQGTLVTVSS VL: DIQLTQSPSFLSASVGDRVTITCRASQDISSYVAWYQQKPGNAPKLLISSASTLPSGVPSRFSGSRSGTDFTLTISSLQPEDFATYYCQQLNNFGPGTTVDIK :: -31

I have this binder here, 2-18 (antibody, V domains shown) VH: EVQLVQSGGGLVQPGGSLRVSCAASGFSFSDHDMDWVRQAPGKGFEWVGRSRNKDYSSTTEYAASVRGRFTISRHTSEDLLYLELNTVKTEDTAVYFCARGPHHSDRSGYYGGTFDIWGQGTMVTVSS VL: DIQMTQSPSSVSASVGDRVIITCRASQGISSWLAWYQQKPGRAPRLLIYDASTLESGVPSRFSGRGSGTEFTLTINSLQPEDFATYYCQQGNMFPLTFGGGTKVEIK , and I need its recorded Pair-wise inhibition (%).
6

Reference source for all entries: patent US11230591
